src = paper PMC11623990

# EXPERIMENT DESCRIPTION: Level of DFX in plasma of iron-overloaded rats (HPLC)
# Assay type: in vivo
# RECORDED CONDITIONS: male, Wistar, rat, 1 day after start of drugs in food (30 mg/kg daily oral), (SD), N = 8
REPORTED ENDPOINT: concentration at 1 day (ng/mL)
One number for each entry, in ng/mL.

Query :: Output measured concentration at 1 day for this item: O=C(O)c1ccc(-n2nc(-c3ccccc3O)nc2-c2ccccc2O)cc1 [DFX, Deferasirox]
Result :: 1200

* * *

# EXPERIMENT DESCRIPTION: Level of DFX in plasma of iron-overloaded rats (HPLC)
# Format: in vivo
# RECORDED CONDITIONS: male, Wistar, rat, 6 days after start of drugs in food (30 mg/kg daily oral), (SD), N = 8
REPORTED ENDPOINT: concentration at 6 day (ng/mL)
Numbers only, in ng/mL.

Query :: // fetch concentration at 6 day given entry `O=C(O)c1ccc(-n2nc(-c3ccccc3O)nc2-c2ccccc2O)cc1`
Result :: 9700
